The reported measurements were obtained from patent US6518423B1.

property-label: melting point

Solved cases (5 shown):
N#CN=C(Cc1ccc2c(c1)Nc1nccnc1S2)NCCCn1ccnc1; 205 to 208 °C
O=C([O-])Cc1ccc(OC2CCN(Cc3ccc4c(c3)Nc3nccnc3S4)CC2)cc1.[Na+]; 261 to 265 °C (dec.)
CCc1ccc(NCc2ccc3c(c2)Nc2nccnc2S3)cn1; 202 to 204 °C
CS(=O)(=O)NC(=O)Cc1ccc2c(c1)Nc1nccnc1S2; 236 to 238 °C
CC(C)(CCCN1CCN(Cc2ccc3c(c2)Nc2nccnc2S3)CC1)C(=O)O [751]; > 275 °C

For `CCCCC1(CC(=O)O)CC2(CCN(Cc3ccc4c(c3)Nc3nccnc3S4)CC2)C1` , what is its reported melting point?
133 to 135 °C

Quick one: melting point for `CN1CCN(Cc2ccc3c(c2)Nc2nccnc2S3)CC1` ?
191 to 192 °C

Given the entry O=C(O)c1ccc(C(O)c2nccn2Cc2ccc3c(c2)Nc2nccnc2S3)cc1 (stereo not drawn) , report its measured melting point.
240 to 241 °C

# query: melting point of entry `O=C(O)c1ccc(CNCc2ccc3c(c2)Nc2nccnc2S3)cc1`
245 to 248 °C

Field request: melting point | item: CN1CC2CN(Cc3ccc4c(c3)Nc3nccnc3S4)CC(C1)C2CC(=O)O (stereo not drawn)
220 °C (dec.)

Bench note: what melting point did CC(CCC1CCN(C(=O)Cc2ccc3c(c2)Nc2nccnc2S3)CC1)C(=O)O (stereo not drawn) show?
84 to 89 °C

I would be grateful if you could share the reported melting point for `c1ccc(C2CCN(c3ncnc4c3ncn4Cc3ccc4c(c3)Nc3nccnc3S4)CC2)cc1` .
239 to 241 °C

Given the entry `N#CN=CNCc1ccc2c(c1)Nc1nccnc1S2` , report its measured melting point.
224 to 226 °C

Tell me the measured melting point of `O=C1CC2(CCN(Cc3ccc4c(c3)Nc3nccnc3S4)CC2)CN1` , please.
211 to 212 °C

// melting point lookup, key: CC(CCC1CCN(Cc2ccc3c(c2)Nc2nccnc2O3)CC1)C(=O)O (stereo not drawn)
238 to 240 °C
